Value source: ChEMBL document CHEMBL5058577

# System: U2OS
# MEASUREMENT_PROTOCOL: Multiplex assay against U2OS
# Type: toxicity, cell-based
# CONDITION_SET: human, 24 h, 10 µM, compound concentration 10 uM, replicate 1
Can you tell me Population Membrane Permeable-Phenotype (%) for the items I'm about to list?
Please answer in the form of a number followed by its unit of measurement.

Name the recorded Population Membrane Permeable-Phenotype (%) for CCc1nn2c(C)cc(C)nc2c1Cc1ccc(-c2nnc(C3CCNCC3)o2)cc1 .
9%

Name the recorded Population Membrane Permeable-Phenotype (%) for Cl.Cl.OCCOCCN1CCN(C(c2ccccc2)c2ccc(Cl)cc2)CC1 (stereo not drawn) [HYDROXYZINE HYDROCHLORIDE] .
10%

Name the recorded Population Membrane Permeable-Phenotype (%) for CCn1c(-c2nc3cc(C(=O)N4CCCC(N)C4)ccc3n2C)cc2ccccc21.Cl (stereo not drawn) .
16%

Name the recorded Population Membrane Permeable-Phenotype (%) for CC(C)(O)C(=O)N1CCN(c2ccc(C(F)(F)F)c(C3=C(c4c[nH]c5ccccc45)C(=O)NC3=O)c2)CC1 .
11%

Name the recorded Population Membrane Permeable-Phenotype (%) for Cc1cc(NC(=O)NCCN2CCC(O)(Cc3ccccc3)CC2)c2ccccc2n1 .
4%

Name the recorded Population Membrane Permeable-Phenotype (%) for Nc1nc(-c2ccco2)c2cnn(Cc3ccccc3F)c2n1 .
7%

Name the recorded Population Membrane Permeable-Phenotype (%) for Cc1c(Cc2ccc3ccccc3n2)c2cc(F)ccc2n1CC(=O)O .
6%

Name the recorded Population Membrane Permeable-Phenotype (%) for CCC(=O)OCC(=O)[C@@]1(OC(=O)CC)[C@@H](C)C[C@H]2[C@@H]3CCC4=CC(=O)C=C[C@]4(C)[C@@]3(Cl)[C@@H](O)C[C@@]21C [BECLOMETHASONE DIPROPIONATE] .
40%

* * *

Can you tell me Population Hoechst High Intensity Objects (%) for the items I'm about to list?
# System: HEK-293T
# MEASUREMENT_PROTOCOL: Multiplex assay against HEK293T
# Assay type: toxicity, cell-based
# CONDITION_SET: human, 48 h, 10 µM, compound concentration 10 uM, replicate 1
Non-standard residues stand in square brackets, D forms with d. Residues, ends and D or L forms follow the SMILES beside them.
Reply with just the number (in %).

Short answer please: Population Hoechst High Intensity Objects (%), HEK-293T, entry Cc1cc(=O)n(C)c2cc(N3C(=O)CC[C@H](NS(=O)(=O)CC(C)C)[C@H]3c3ccc(Cl)cc3)ccc12
10

Short answer please: Population Hoechst High Intensity Objects (%), HEK-293T, entry CN1CCN(c2ccc(Nc3c4ccccc4nc4ccccc34)cc2)CC1.Cl.Cl.O
11

Short answer please: Population Hoechst High Intensity Objects (%), HEK-293T, entry Cc1cc(-c2ccc3c(c2)CC[C@H]3N2CC3(CCN(C(=O)Cc4cn5cc(C)sc5n4)CC3)C2)ncn1 [PF-5190457]
2

Short answer please: Population Hoechst High Intensity Objects (%), HEK-293T, entry Cc1cc(NC(=O)NCCN2CCC(O)(Cc3ccccc3)CC2)c2ccccc2n1 [PALOSURAN]
5

Short answer please: Population Hoechst High Intensity Objects (%), HEK-293T, entry CCn1c(-c2nc3cc(C(=O)N4CCCC(N)C4)ccc3n2C)cc2ccccc21.Cl (stereo not drawn)
15

Short answer please: Population Hoechst High Intensity Objects (%), HEK-293T, entry COc1cc2nc(N3CCN(C(=O)c4ccco4)CC3)nc(N)c2cc1OC.Cl [PRAZOSIN HYDROCHLORIDE]
4

Short answer please: Population Hoechst High Intensity Objects (%), HEK-293T, entry Cn1cc(C(=O)OCC2CCN(CCNS(C)(=O)=O)CC2)c2ccccc21
6

Short answer please: Population Hoechst High Intensity Objects (%), HEK-293T, entry CC(C)C[C@H](CO)Nc1nc(S[C@@H](C)c2ccccc2)nc2nc(N)sc12 [AZD-8797]
7

Short answer please: Population Hoechst High Intensity Objects (%), HEK-293T, entry N[C@](CC1c2ccccc2Oc2ccccc21)(C(=O)O)[C@H]1C[C@@H]1C(=O)O
2

Short answer please: Population Hoechst High Intensity Objects (%), HEK-293T, entry CN1CCC(C(=O)c2cccc(NC(=O)c3c(F)cc(F)cc3F)n2)CC1
4

Short answer please: Population Hoechst High Intensity Objects (%), HEK-293T, entry S=C(NCCCc1c[nH]cn1)NCCCN(Cc1ccc(Cl)c(Cl)c1)c1ccc(Br)cn1
75

Short answer please: Population Hoechst High Intensity Objects (%), HEK-293T, entry COc1cc(OC2CCN(C(C)=O)CC2)ccc1C(=O)N1CCC(N2C(=O)OCc3ccccc32)CC1
4

Short answer please: Population Hoechst High Intensity Objects (%), HEK-293T, entry COCCn1c(C)c(C)s/c1=N\C(=O)C1C(C)(C)C1(C)C
2

Short answer please: Population Hoechst High Intensity Objects (%), HEK-293T, entry COc1ccc2c(c1OCc1ccccc1)C[C@@H](C(=O)O)N(C(=O)C(c1ccccc1)c1ccccc1)C2 [OLODANRIGAN]
5

Short answer please: Population Hoechst High Intensity Objects (%), HEK-293T, entry COc1cc(Nc2ncc3c(n2)-c2ccc(Cl)cc2C(c2c(F)cccc2OC)=NC3)ccc1C(=O)O [ALISERTIB]
5

Short answer please: Population Hoechst High Intensity Objects (%), HEK-293T, entry OCCCNc1cc(-c2ccnc(Nc3cccc(Cl)c3)n2)ccn1
57

Short answer please: Population Hoechst High Intensity Objects (%), HEK-293T, entry CCCCCCNC(=O)Nc1ccc(S(=O)(=O)Nc2ccc(CCNC[C@H](O)COc3ccc(O)cc3)cc2)cc1 [L-755507]
11

Short answer please: Population Hoechst High Intensity Objects (%), HEK-293T, entry CC(C)C[C@@H]1NC(=O)[C@@H](C(C)C)NC(=O)[C@@H]2CCCN2C(=O)[C@@H](CC(=O)O)NC(=O)[C@@H](Cc2c[nH]c3ccccc23)NC1=O [BQ-123] (cyclo(L[dW][dD]P[dV]))
3

Short answer please: Population Hoechst High Intensity Objects (%), HEK-293T, entry O=C(O)CCC/C=C\CC1C(O)CC(O)C1/C=C/C(O)COc1cccc(Cl)c1 (stereo not drawn) [CLOPROSTENOL]
7

Short answer please: Population Hoechst High Intensity Objects (%), HEK-293T, entry Cc1nn(C)c2nc(NNC(=O)Nc3cc(Cl)nc(Cl)c3)cc(C(C)C)c12
3

Short answer please: Population Hoechst High Intensity Objects (%), HEK-293T, entry O=C(Nc1cc(-c2ccccc2)nn1-c1ccccc1F)c1ccc([N+](=O)[O-])cc1
2

Short answer please: Population Hoechst High Intensity Objects (%), HEK-293T, entry Nc1nc(CC(=O)Nc2ccc(CCNC[C@H](O)c3ccccc3)cc2)cs1 [MIRABEGRON]
3

Short answer please: Population Hoechst High Intensity Objects (%), HEK-293T, entry CCCCC[C@H](O)/C=C/[C@H]1[C@H](O)CC(=O)[C@@H]1CCCCCCC(=O)O [ALPROSTADIL]
2

Short answer please: Population Hoechst High Intensity Objects (%), HEK-293T, entry CCC(=O)OCC(=O)[C@@]1(OC(=O)CC)[C@@H](C)C[C@H]2[C@@H]3CCC4=CC(=O)C=C[C@]4(C)[C@@]3(Cl)[C@@H](O)C[C@@]21C [BECLOMETHASONE DIPROPIONATE]
5

Short answer please: Population Hoechst High Intensity Objects (%), HEK-293T, entry C[C@@H]1CC(=O)Nc2cccc(-c3ccc4c(c3)c(-c3cnn(C)c3)nn4C)c2N1
4

Short answer please: Population Hoechst High Intensity Objects (%), HEK-293T, entry O=C(NCCNCC(O)COc1ccc(O)cc1)N1CCOCC1.O=C(NCCNCC(O)COc1ccc(O)cc1)N1CCOCC1.O=C(O)/C=C/C(=O)O (stereo not drawn) [XAMOTEROL FUMARATE]
0

Short answer please: Population Hoechst High Intensity Objects (%), HEK-293T, entry O=c1nc2[nH]c3ccccc3nc-2c(=O)[nH]1 [ALLOXAZINE]
3

Short answer please: Population Hoechst High Intensity Objects (%), HEK-293T, entry Cc1cc(O)c(-c2ccc([C@@H](C)CN(C)C)cc2)c2c1[nH]c(=O)c1sccc12
40

Short answer please: Population Hoechst High Intensity Objects (%), HEK-293T, entry Nc1nc(-c2ccco2)c2cnn(Cc3ccccc3F)c2n1
7

Short answer please: Population Hoechst High Intensity Objects (%), HEK-293T, entry Cl.Cl.OCCOCCN1CCN(C(c2ccccc2)c2ccc(Cl)cc2)CC1 (stereo not drawn) [HYDROXYZINE HYDROCHLORIDE]
6

Short answer please: Population Hoechst High Intensity Objects (%), HEK-293T, entry CN(C)C(=O)Cn1cc(-c2ccc(-c3nnc4ccccn34)cc2)cn1
5

Short answer please: Population Hoechst High Intensity Objects (%), HEK-293T, entry O=c1ccc2ccc(OCCCCN3CCN(c4cccc5sccc45)CC3)cc2[nH]1 [BREXPIPRAZOLE]
67

Short answer please: Population Hoechst High Intensity Objects (%), HEK-293T, entry C=CCN1C[C@H](C(=O)N(CCCN(C)C)C(=O)NCC)C[C@@H]2c3cccc4[nH]cc(c34)C[C@H]21 [CABERGOLINE]
5
